measurement target: CDK9/cyclin T1 (Homo sapiens, UniProt P50750)
Sequence (O60563 whole entry): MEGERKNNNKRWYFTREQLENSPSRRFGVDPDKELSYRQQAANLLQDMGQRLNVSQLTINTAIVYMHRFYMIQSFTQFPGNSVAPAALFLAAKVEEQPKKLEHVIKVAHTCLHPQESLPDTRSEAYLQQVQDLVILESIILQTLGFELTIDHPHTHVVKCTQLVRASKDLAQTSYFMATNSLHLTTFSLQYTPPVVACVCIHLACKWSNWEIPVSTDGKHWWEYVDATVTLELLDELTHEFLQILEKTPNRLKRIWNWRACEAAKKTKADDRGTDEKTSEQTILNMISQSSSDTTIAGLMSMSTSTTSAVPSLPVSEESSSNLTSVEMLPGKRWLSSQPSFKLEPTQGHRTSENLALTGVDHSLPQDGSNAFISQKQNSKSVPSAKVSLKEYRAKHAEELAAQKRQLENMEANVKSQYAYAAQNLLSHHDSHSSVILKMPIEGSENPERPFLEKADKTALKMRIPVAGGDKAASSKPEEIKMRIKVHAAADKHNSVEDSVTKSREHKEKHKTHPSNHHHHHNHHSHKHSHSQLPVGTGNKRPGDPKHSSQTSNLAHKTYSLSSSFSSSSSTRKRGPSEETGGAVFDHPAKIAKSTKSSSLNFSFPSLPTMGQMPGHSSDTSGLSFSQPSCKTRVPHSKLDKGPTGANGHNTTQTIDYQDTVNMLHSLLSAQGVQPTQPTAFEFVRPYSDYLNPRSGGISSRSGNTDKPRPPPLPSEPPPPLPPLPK
Sequence (P50750 whole entry): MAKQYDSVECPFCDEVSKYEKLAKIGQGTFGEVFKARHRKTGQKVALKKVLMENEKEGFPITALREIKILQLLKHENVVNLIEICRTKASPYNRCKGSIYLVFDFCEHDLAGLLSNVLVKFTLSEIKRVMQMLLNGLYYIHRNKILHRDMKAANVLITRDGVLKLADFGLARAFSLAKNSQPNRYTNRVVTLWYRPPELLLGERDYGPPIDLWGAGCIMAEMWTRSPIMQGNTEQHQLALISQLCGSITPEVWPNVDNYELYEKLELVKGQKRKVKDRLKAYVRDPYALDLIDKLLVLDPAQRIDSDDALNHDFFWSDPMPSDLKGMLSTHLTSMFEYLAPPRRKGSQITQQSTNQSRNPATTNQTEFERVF
experiment: Inhibition of CDK9/Cyclin T1 (unknown origin) preincubated for 20 mins followed by ATP addition and measured after 120 mins in presence of [33P-gamma] ATP by hotspot kinase assay
Measured log10 IC50 values are reported for all entries that follow.
Lab note - IC50 converted to log10 from values in nM.

[
  {
    "structure string": "COc1ccccc1-c1ccnc(Nc2ccc3c(N4CCOCC4)cc(=O)oc3c2)n1",
    "quantity name": "log10 IC50",
    "reported measurement": 1.67
  }
]

Entry under review: COc1ccc(F)cc1-c1ccnc(Nc2ccc3c(N4CCOCC4)c(C(C)=O)c(=O)oc3c2)n1 . Reported log10 IC50? 1.34

Entry under review: COc1cc(F)ccc1-c1ccnc(Nc2ccc3c(N4CCCCC4)c(C(C)=O)c(=O)oc3c2)n1 . Reported log10 IC50? 0.81

Entry under review: CCc1c(N2CCOCC2)c2ccc(Nc3nccc(-c4ccccc4OC)n3)cc2oc1=O . Reported log10 IC50? 1.83

Entry under review: CC(=O)c1c(C)c2ccc(Nc3nccc(-c4cccnc4)n3)cc2oc1=O . Reported log10 IC50? 2.26

Entry under review: COc1cc(F)ccc1-c1nc(Nc2ccc3c(N4CCN(C)CC4)c(C(C)=O)c(=O)oc3c2)ncc1F . Reported log10 IC50? 0.18

Entry under review: CC(=O)c1c(N2CCOCC2)c2ccc(Nc3nccc(-c4c(F)cccc4F)n3)cc2oc1=O . Reported log10 IC50? 2.43

Attribution: ChEMBL document CHEMBL4765336
